- tgt: hTRPA1 (Homo sapiens, UniProt O75762, K186N)
- Construct: expressed in transfected cells; host or cells: HEK293/TREx (Invitrogen), induced with tetracycline
- Sequence (O75762 whole entry K186N): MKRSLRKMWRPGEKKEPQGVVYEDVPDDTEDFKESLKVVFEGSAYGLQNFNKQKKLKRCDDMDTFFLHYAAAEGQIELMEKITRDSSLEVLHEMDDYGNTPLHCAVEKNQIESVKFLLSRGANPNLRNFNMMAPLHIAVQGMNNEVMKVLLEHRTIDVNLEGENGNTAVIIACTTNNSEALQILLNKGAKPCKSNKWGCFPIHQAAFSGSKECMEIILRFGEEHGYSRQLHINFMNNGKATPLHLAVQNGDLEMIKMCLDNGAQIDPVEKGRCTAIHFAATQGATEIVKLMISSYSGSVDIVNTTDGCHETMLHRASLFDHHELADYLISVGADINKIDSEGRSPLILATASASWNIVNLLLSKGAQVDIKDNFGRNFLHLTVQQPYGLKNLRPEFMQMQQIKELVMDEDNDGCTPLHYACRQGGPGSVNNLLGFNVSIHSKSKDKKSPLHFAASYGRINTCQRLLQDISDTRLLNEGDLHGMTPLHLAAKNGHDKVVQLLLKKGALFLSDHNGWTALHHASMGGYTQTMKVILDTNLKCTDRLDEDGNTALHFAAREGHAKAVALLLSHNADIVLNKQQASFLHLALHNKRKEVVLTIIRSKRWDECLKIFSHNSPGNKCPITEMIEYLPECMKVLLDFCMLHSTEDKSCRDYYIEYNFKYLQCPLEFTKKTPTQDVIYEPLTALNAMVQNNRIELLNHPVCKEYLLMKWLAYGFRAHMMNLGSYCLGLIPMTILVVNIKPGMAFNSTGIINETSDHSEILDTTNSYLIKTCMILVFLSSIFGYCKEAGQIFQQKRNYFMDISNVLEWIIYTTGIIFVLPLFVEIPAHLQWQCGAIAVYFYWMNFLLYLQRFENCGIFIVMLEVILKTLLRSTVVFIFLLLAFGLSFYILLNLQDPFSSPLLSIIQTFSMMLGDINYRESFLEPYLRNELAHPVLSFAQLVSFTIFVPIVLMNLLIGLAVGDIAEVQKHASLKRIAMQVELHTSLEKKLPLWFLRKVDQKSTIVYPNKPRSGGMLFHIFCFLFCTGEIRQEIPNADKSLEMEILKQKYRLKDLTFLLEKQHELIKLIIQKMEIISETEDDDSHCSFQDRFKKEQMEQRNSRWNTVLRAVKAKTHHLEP
- test: High throughput Ca2+ fluorescence (Fluo4) assay, AITC stimulation
- Type: cell-based
- condition.parameters: Table 2; read-out: hTRPA1 Fluor IC50
pIC50: −log10 of the molar value.
Listing of entries alongside the reported pIC50.

>>> df
                                   compound  attribute_measured  experimental_value
0  COc1ccc(CCNC(=O)Cn2cnc3c2c(=O)n(C)c(=O)n3C)cc1               pIC50              ≥ 5.30
1  Cn1c(=O)c2c(ncn2CC(=O)Nc2cccc3ccccc23)n(C)c1=O               pIC50              < 5.00

CC(C(=O)Nc1cc(Cl)cc(Cl)c1)n1cnc2c1c(=O)n(C)c(=O)n2C (stereo not drawn) has a reported pIC50 of ≥ 5.00

"COc1ccccc1NC(=O)Cn1cnc2c1c(=O)n(C)c(=O)n2C" has a reported pIC50 of < 5.00

"Cn1c(=O)c2c(ncn2CC(=O)Nc2ccc(SC(F)F)cc2)n(C)c1=O" has a reported pIC50 of ≥ 6.00

"Cc1ccccc1NC(=O)Cn1cnc2c1c(=O)n(C)c(=O)n2C" has a reported pIC50 of < 5.00

"Cn1c(=O)c2c(ncn2CC(=O)NC(c2ccccc2)c2ccccc2)n(C)c1=O" has a reported pIC50 of < 5.00

"CCOc1ccc(NC(=O)Cn2cnc3c2c(=O)n(C)c(=O)n3C)cc1" has a reported pIC50 of ≥ 5.00

"Cc1ccccc1CNC(=O)Cn1cnc2c1c(=O)n(C)c(=O)n2C" has a reported pIC50 of < 5.00
